The measurements presented in this section are drawn from patent EP4725957A1.

# System: Pseudomonas aeruginosa PAE19-3
# Assay type: cell-based
# CONDITION_DETAILS: PAE19-3
Bridge positions count the residues as written; N and C are the ends. Square brackets hold non-standard residues; d marks the D form. Peptide text beside a SMILES is read from it. * marks the point of attachment. Dab(CH2SO3H) = N[C@@H](CCNCS(=O)(=O)O)C(=O)O; Heptanoyl(6-Me) = CC(C)CCCCC(=O)*; dOrn = NCCC[C@@H](N)C(=O)O; Nonanoyl = CCCCCCCCC(=O)*; X1 = CC[C@H](C)CCCCC(=O)*; dDab = NCC[C@@H](N)C(=O)O; Heptanoyl = CCCCCCC(=O)*; Octanoyl = CCCCCCCC(=O)*; Orn = NCCC[C@H](N)C(=O)O; dDap = NC[C@@H](N)C(=O)O; Dab = NCC[C@H](N)C(=O)O; Dap = NC[C@H](N)C(=O)O
OBSERVED_PROPERTY: log10 MIC (log10 of the value in µg/mL)
Hello, just confirming the data are log10 of MIC with units of µg/mL.

COMPOUND: CCCCCCC(=O)N[C@@H](CCN)C(=O)N[C@H](C(=O)N[C@H](CN)C(=O)N[C@H]1CCNC(=O)[C@H]([C@@H](C)O)NC(=O)[C@H](CCN)NC(=O)[C@H](CCN)NC(=O)[C@H]([C@@H](C)O)NC(=O)[C@@H](Cc2ccccc2)NC(=O)[C@H](CCN)NC1=O)[C@@H](C)O [Compound 4] (Heptanoyl-[Dab]T[dDap][Dab][Dab][dF]T[Dab][Dab]T; lactam 4-C)
MEASURED_ON: Pseudomonas aeruginosa PAE19-3
OBSERVED_PROPERTY: log10 MIC
ASSAY_RESULT: -0.60
//
COMPOUND: CCCCCCCC(=O)N[C@@H](CCN)C(=O)N[C@H](C(=O)N[C@@H](CN)C(=O)N[C@H]1CCNC(=O)[C@H]([C@@H](C)O)NC(=O)[C@H](CCN)NC(=O)[C@H](CCN)NC(=O)[C@H]([C@@H](C)O)NC(=O)[C@@H](Cc2ccccc2)NC(=O)[C@H](CCN)NC1=O)[C@@H](C)O [Compound 8] (Octanoyl-[Dab]T[Dap][Dab][Dab][dF]T[Dab][Dab]T; lactam 4-C)
MEASURED_ON: Pseudomonas aeruginosa PAE19-3
OBSERVED_PROPERTY: log10 MIC
ASSAY_RESULT: -0.60
//
COMPOUND: CCCCCCC(=O)N[C@@H](CCN)C(=O)N[C@H](C(=O)N[C@H](CO)C(=O)N[C@H]1CCNC(=O)[C@H]([C@@H](C)O)NC(=O)[C@H](CCN)NC(=O)[C@H](CCN)NC(=O)[C@H]([C@@H](C)O)NC(=O)[C@@H](Cc2ccccc2)NC(=O)[C@H](CCCN)NC1=O)[C@@H](C)O [Compound 69] (Heptanoyl-[Dab]T[dS][Dab][Orn][dF]T[Dab][Dab]T; lactam 4-C)
MEASURED_ON: Pseudomonas aeruginosa PAE19-3
OBSERVED_PROPERTY: log10 MIC
ASSAY_RESULT: 0.90
//
COMPOUND: CCCCCCCC(=O)N[C@@H](CCN)C(=O)N[C@H](C(=O)N[C@@H](CCN)C(=O)N[C@H]1CCNC(=O)[C@H]([C@@H](C)O)NC(=O)[C@H](CCN)NC(=O)[C@H](CCN)NC(=O)[C@H]([C@@H](C)O)NC(=O)[C@@H](Cc2ccccc2)NC(=O)[C@H](CCN)NC1=O)[C@@H](C)O [Compound 18] (Octanoyl-[Dab]T[Dab][Dab][Dab][dF]T[Dab][Dab]T; lactam 4-C)
MEASURED_ON: Pseudomonas aeruginosa PAE19-3
OBSERVED_PROPERTY: log10 MIC
ASSAY_RESULT: -0.30
//
COMPOUND: CC[C@H](C)CCCCC(=O)N[C@@H](CCN)C(=O)N[C@H](C(=O)N[C@H](CCCN)C(=O)N[C@H]1CCNC(=O)[C@H]([C@@H](C)O)NC(=O)[C@H](CCN)NC(=O)[C@H](CCN)NC(=O)[C@H](CC(C)C)NC(=O)[C@@H](Cc2ccccc2)NC(=O)[C@H](CCN)NC1=O)[C@@H](C)O [Compound 41] (X1-[Dab]T[dOrn][Dab][Dab][dF]L[Dab][Dab]T; lactam 4-C)
MEASURED_ON: Pseudomonas aeruginosa PAE19-3
OBSERVED_PROPERTY: log10 MIC
ASSAY_RESULT: 0.00
//
COMPOUND: CC(C)CCCCC(=O)N[C@@H](CCN)C(=O)N[C@H](C(=O)N[C@@H](CN)C(=O)N[C@H]1CCNC(=O)[C@H]([C@@H](C)O)NC(=O)[C@H](CCN)NC(=O)[C@H](CCN)NC(=O)[C@H]([C@@H](C)O)NC(=O)[C@@H](Cc2ccccc2)NC(=O)[C@H](CCNCS(=O)(=O)O)NC1=O)[C@@H](C)O [Compound 118] ({Heptanoyl(6-Me)}-[Dab]T[Dap][Dab][Dab(CH2SO3H)][dF]T[Dab][Dab]T; lactam 4-C)
MEASURED_ON: Pseudomonas aeruginosa PAE19-3
OBSERVED_PROPERTY: log10 MIC
ASSAY_RESULT: -0.30

What log10 MIC appears in the records for this compound with Pseudomonas aeruginosa PAE19-3? CC(C)CCCCC(=O)N[C@@H](CCNCS(=O)(=O)O)C(=O)N[C@H](C(=O)N[C@@H](CN)C(=O)N[C@H]1CCNC(=O)[C@H]([C@@H](C)O)NC(=O)[C@H](CCN)NC(=O)[C@H](CCN)NC(=O)[C@H]([C@@H](C)O)NC(=O)[C@@H](Cc2ccccc2)NC(=O)[C@H](CCN)NC1=O)[C@@H](C)O [Compound 117] ({Heptanoyl(6-Me)}-[Dab(CH2SO3H)]T[Dap][Dab][Dab][dF]T[Dab][Dab]T; lactam 4-C)
-0.30

Return log10 MIC measured with Pseudomonas aeruginosa PAE19-3 given this compound: CCCCCCCCC(=O)N[C@@H](CCN)C(=O)N[C@H](C(=O)N[C@H](CCCN)C(=O)N[C@H]1CCNC(=O)[C@H]([C@@H](C)O)NC(=O)[C@H](CCN)NC(=O)[C@H](CCN)NC(=O)[C@H](CC(C)C)NC(=O)[C@@H](Cc2ccccc2)NC(=O)[C@H](CCN)NC1=O)[C@@H](C)O [Compound 45] (Nonanoyl-[Dab]T[dOrn][Dab][Dab][dF]L[Dab][Dab]T; lactam 4-C)
0.30

Which measured log10 MIC belongs to CCCCCCCCC(=O)N[C@@H](CCN)C(=O)N[C@H](C(=O)N[C@H](CO)C(=O)N[C@H]1CCNC(=O)[C@H]([C@@H](C)O)NC(=O)[C@H](CCCN)NC(=O)[C@H](CCN)NC(=O)[C@H]([C@@H](C)O)NC(=O)[C@@H](Cc2ccccc2)NC(=O)[C@H](CCN)NC1=O)[C@@H](C)O [Compound 90] (Nonanoyl-[Dab]T[dS][Dab][Dab][dF]T[Dab][Orn]T; lactam 4-C) , tested on Pseudomonas aeruginosa PAE19-3?
1.81

Request body: readout log10 MIC, system Pseudomonas aeruginosa PAE19-3, query CC(C)CCCCC(=O)N[C@@H](CN)C(=O)N[C@H](C(=O)N[C@H](CCN)C(=O)N[C@H]1CCNC(=O)[C@H]([C@@H](C)O)NC(=O)[C@H](CCN)NC(=O)[C@H](CCN)NC(=O)[C@H](CC(C)C)NC(=O)[C@@H](Cc2ccccc2)NC(=O)[C@H](CCN)NC1=O)[C@@H](C)O [Compound 92] ({Heptanoyl(6-Me)}-[Dap]T[dDab][Dab][Dab][dF]L[Dab][Dab]T; lactam 4-C) . Return the value.
-0.30
